Reported melting point values are given for each entry in this list.

{"compound": "Nc1ncc(Cl)nc1Br", "melting point": "102 to 105 °C"}
{"compound": "COCOc1ccc(C(CS(=O)(=O)c2ccc(-c3ccc(C(F)(F)F)cc3)cc2)N(O)C=O)cc1 (stereo not given)", "melting point": "137 to 138 °C"}
{"compound": "CCC(=O)OCC(=O)OC1C(CC)CC2C3CCC4=CC(=O)CCC4C3CCC21C (stereo not given)", "melting point": "101 to 104 °C"}
{"compound": "Cc1cccc(Cn2cccc2C(=O)CC(=O)C(=O)O)c1", "melting point": "140 to 141 °C"}
{"compound": "Nc1ccc2[nH]c(=O)ccc2c1", "melting point": "116 to 118 °C"}
{"compound": "CCCC(=O)Nc1cc(C(=O)Nc2cc(C(=O)Nc3ccc(O)cc3CCBr)n(C)c2)n(C)c1", "melting point": "138 to 150 °C"}
{"compound": "Cn1nnc(-c2ccc(C=Cc3ccc(-c4nc5ccccc5o4)cc3)cc2)c1-c1nc2ccccc2o1", "melting point": "246 to 249 °C"}
{"compound": "CS(=O)(=O)c1nc2cnc3cccnc3c2n1Cc1ccccc1", "melting point": "187 to 191 °C"}
{"compound": "CN1CCc2nc3ccc(Cl)cc3c(Oc3ccccc3)c2C1", "melting point": "182 to 184 °C"}
{"compound": "CC(=O)OCC(=O)C1CC(OS(=O)(=O)c2c(C)cc(C)cc2C)C2C3CCC4CC(OC(C)=O)CCC4(C)C3CC(OC(C)=O)C12C (stereo not given)", "melting point": "156 to 157 °C"}
{"compound": "CCOC(=O)c1cn2c(=O)n(CC)c3ccccc3n2c1=O", "melting point": "235 to 237 °C"}
{"compound": "CC(Cc1c[nH]c2ccccc12)NC1CCC(c2ccccc2)(N(C)C)CC1 (stereo not given)", "melting point": "155 to 162 °C"}
{"compound": "COC(Cn1cncn1)(c1ccc(F)cc1F)C(F)(F)S(=O)(=O)CCO (stereo not given)", "melting point": "108 to 110 °C"}
{"compound": "CCOC(=O)c1c(C=O)c2c(Cl)cc(Cl)cc2n1C(=O)OC(C)(C)C", "melting point": "141 °C"}
{"compound": "CC(C)N(C(=O)CN1C(=O)C(C)(CC(=O)Nc2ccccc2)C(=O)N(c2ccc(Cl)cc2)c2ccccc21)c1ccccc1 (stereo not given)", "melting point": "170 to 176 °C"}
{"compound": "CCCc1c(O)c(C(C)=O)cc(I)c1OCc1ccc(C(=O)O)cc1", "melting point": "167 to 168 °C"}
{"compound": "O=C1CC(CF)(CF)Oc2ccc(C(F)(F)F)cc21", "melting point": "73 to 74.5 °C"}
{"compound": "CCCCN(CC)C(=O)c1cnc2c3c(ccc2c1)C(=O)C(C(=O)O)C=N3 (stereo not given)", "melting point": "236 to 237 °C"}
{"compound": "Cn1c2c(c3cccc(C#N)c31)C(=O)NCC2", "melting point": "230 to 231 °C"}
{"compound": "CC(C)n1cc(-c2nc(C#N)c(N)nc2-c2ccccc2F)ccc1=O", "melting point": "211 °C"}
{"compound": "CS(=O)(=O)c1ccc(Oc2cc(OC3CCOCC3)c3[nH]c(C4=NCC(CC(=O)NCCO)S4)cc3c2)cn1 (stereo not given)", "melting point": "157 to 158 °C"}
{"compound": "O=C(Nc1ccc(Cl)cc1)NS(=O)(=O)c1ccc2c(c1)OCCO2", "melting point": "191 °C"}
{"compound": "CC(OCc1ccc2ccccc2c1)(C(=O)Cl)C(F)(F)F (stereo not given)", "melting point": "39 to 43 °C"}
{"compound": "COc1cc(C)nc(-c2ccc(C)cc2)n1", "melting point": "66 to 67 °C"}
{"compound": "Cc1cccc(C)c1CNc1cc(C(=O)N(C)C)cc2c1nc(C)n2C", "melting point": "142 to 143 °C"}
{"compound": "COc1cc2c(c3c1OC(C)(C)C3)C(c1cccc(-c3cncnc3)c1)=NC(C)(C)C2", "melting point": "141 to 143 °C"}
{"compound": "CCOC(=O)COc1ccc(N(C)c2cc3ccc(Cl)cc3c(Cl)n2)cc1", "melting point": "99 °C"}
{"compound": "O=C1NC(=O)C(Cc2ccc3c(c2)CCC(Cc2ccc(OCc4ccccc4)cc2)O3)S1 (stereo not given)", "melting point": "118 to 120 °C"}
{"compound": "CCOCc1nc2cnc3cccnc3c2n1CC1(O)CCOCC1", "melting point": "168 to 169 °C"}
{"compound": "CC(C)Oc1ccc(CCCCC2OC(=O)NC2=O)cc1 (stereo not given)", "melting point": "81 to 82 °C"}
{"compound": "CCOc1cc(COc2nn(Cc3ccccc3)cc2C=O)ccc1OCc1nc(-c2ccco2)oc1C", "melting point": "144 to 145 °C"}
{"compound": "O=C1NC(=O)C2(N1)c1ccccc1-c1ncccc12 (stereo not given)", "melting point": "311 to 312 °C"}
{"compound": "CNC(=O)OC1CCN(C(=O)Oc2ccc(Oc3ccccc3)cc2)CC1", "melting point": "117 to 119 °C"}
{"compound": "NS(=O)(=O)c1ccc(NC(=O)CCl)c(F)c1", "melting point": "185 to 187 °C"}
{"compound": "COc1ccc2sc(C(=O)Nc3ccc(S(=O)(=O)OC)cc3)c(OC(C)C)c2c1", "melting point": "176 to 177 °C"}
{"compound": "O=C(O)c1cc(Cl)cc(OCc2ccccc2)c1", "melting point": "127 to 129 °C"}
{"compound": "c1ccc(C(c2ccccc2)(c2ncccn2)n2ccnc2)cc1", "melting point": "138 to 143 °C"}
{"compound": "COc1ccc([N+](=O)[O-])c(C2OCCO2)c1OC", "melting point": "74 to 76 °C"}
{"compound": "CCn1c(=O)ccc2ccccc21", "melting point": "52 to 54 °C"}
{"compound": "CCOC(=O)C1=Cc2ccsc2S(=O)(=O)N1c1cccc(OC)c1", "melting point": "107 to 109 °C"}
